# TEST_NAME: total protein half-life in vivo (active degradation + dilution); higher = more stable protein
# TEST_CONDITIONS: E. coli NCM3722 delta-clpP delta-lon delta-hslV; growth: N-lim chemostat; doubling time 6 h

SEQUENCE_TEXT	UNITS_TEXT	total protein half-life in vivo
MSHLAELVASAKAAISQASDVAALDNVRVEYLGKKGHLTLQMTTLRELPPEERPAAGAVINEAKEQVQQALNARKAELESAALNARLAAETIDVSLPGRRIENGGLHPVTRTIDRIESFFGELGFTVATGPEIEDDYHNFDALNIPGHHPARADHDTFWFDTTRLLRTQTSGVQIRTMKAQQPPIRIIAPGRVYRNDYDQTHTPMFHQMEGLIVDTNISFTNLKGTLHDFLRNFFEEDLQIRFRPSYFPFTEPSAEVDVMGKNGKWLEVLGCGMVHPNVLRNVGIDPEVYSGFAFGMGMERLTMLRYGVTDLRSFFENDLRFLKQFK	h	5.84
MKIVIAPDSFKESLSAEKCCQAIKAGFSTLFPDANYICLPIADGGEGTVDAMVAATGGNIVTLEVCGPMGEKVNAFYGLTGDGKTAVIEMAAASGLMLVAPEKRNPLLASSFGTGELIRHALDNDIRHIILGIGGSATVDGGMGMAQALGVRFLDADGQALAANGGNLARVASIEMDECDPRLANCHIEVACDVDNPLVGARGAAAVFGPQKGATPEMVEELEQGLQNYARVLQQQTEINVCQMAGGGAAGGMGIAAAVFLNADIKPGIEIVLNAVNLAQAVQGAALVITGEGRIDSQTAGGKAPLGVASVAKQFNVPVIGIAGVLGDGVEVVHQYGIDAVFSILPRLAPLAEVLASGETNLFNSARNIACAIKIGQGIKN	h	4.41

* * *

# TEST_NAME: total protein half-life in vivo (active degradation + dilution); higher = more stable protein
# TEST_CONDITIONS: wild type E. coli NCM3722; growth: C-lim chemostat; doubling time 6 h
Here the recorded total protein half-life in vivo is given for each entry.

SEQUENCE_TEXT	total protein half-life in vivo
MNMKLKTLFAAAFAVVGFCSTASAVTYPLPTDGSRLVGQNQVITIPEGNTQPLEYFAAEYQMGLSNMMEANPGVDTFLPKGGTVLNIPQQLILPDTVHEGIVINSAEMRLYYYPKGTNTVIVLPIGIGQLGKDTPINWTTKVERKKAGPTWTPTAKMHAEYRAAGEPLPAVVPAGPDNPMGLYALYIGRLYAIHGTNANFGIGLRVSHGCVRLRNEDIKFLFEKVPVGTRVQFIDEPVKATTEPDGSRYIEVHNPLSTTEAQFEGQEIVPITLTKSVQTVTGQPDVDQVVLDEAIKNRSGMPVRLN [P0AAX8]	5.76 h
MFEITGINVSGALKAVVMATGFENPLSSVNEIETKLSALLGSETTGEILFDLLCANGPEWNRFVTLEMKYGRIMLDTAKIIDEQDVPTHILSKLTFTLRNHPEYLEASVLSPDDVRQVLSMDF	5.11 h

* * *

Documented total protein half-life in vivo across a set of sequences
# TEST_NAME: total protein half-life in vivo (active degradation + dilution); higher = more stable protein
# TEST_CONDITIONS: E. coli NCM3722 delta-hslV; growth: N-lim chemostat; doubling time 6 h

SEQUENCE_TEXT	total protein half-life in vivo, h
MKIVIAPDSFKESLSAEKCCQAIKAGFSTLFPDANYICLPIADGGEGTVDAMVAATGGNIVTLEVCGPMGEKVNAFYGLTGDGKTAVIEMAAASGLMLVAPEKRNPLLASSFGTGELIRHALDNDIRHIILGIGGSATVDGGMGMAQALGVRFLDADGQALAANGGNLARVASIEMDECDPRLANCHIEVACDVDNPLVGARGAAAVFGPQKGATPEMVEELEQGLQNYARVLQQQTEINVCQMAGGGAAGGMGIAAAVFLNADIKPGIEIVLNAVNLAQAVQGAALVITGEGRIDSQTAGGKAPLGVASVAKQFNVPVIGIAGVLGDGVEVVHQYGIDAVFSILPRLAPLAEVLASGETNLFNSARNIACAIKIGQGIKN	4.47
MYHDVSYLLSRLINGPLSLRQIYFASSNGPVPDLAYQVDFPRLEIVLEGEFVDTGAGATLVPGDVLYVPAGGWNFPQWQAPATTFSVLFGKQQLGFSVVQWDGKQYQNLAKQHVARRGPRIGSFLLQTLNEMQMQPQEQQTARLIVASLLSHCRDLLGSQIQTASRSQALFEAIRDYIDERYASALTRESVAQAFYISPNYLSHLFQKTGAIGFNEYLNHTRLEHAKTLLKGYDLKVKEVAHACGFVDSNYFCRLFRKNTERSPSEYRRQYHSQLTEKPTTPE	4.1
MSKKIAVLITDEFEDSEFTSPADEFRKAGHEVITIEKQAGKTVKGKKGEASVTIDKSIDEVTPAEFDALLLPGGHSPDYLRGDNRFVTFTRDFVNSGKPVFAICHGPQLLISADVIRGRKLTAVKPIIIDVKNAGAEFYDQEVVVDKDQLVTSRTPDDLPAFNREALRLLGA	5.59

FYI, the data here is from the supplement of paper PMC11246515.
